Target: T1, recombinant human IL-6 (human, UniProt P05231 30-212)
T1 construct: Flowed in solution over the captured antibodies
T1 sequence (P05231 30-212 limits assumed): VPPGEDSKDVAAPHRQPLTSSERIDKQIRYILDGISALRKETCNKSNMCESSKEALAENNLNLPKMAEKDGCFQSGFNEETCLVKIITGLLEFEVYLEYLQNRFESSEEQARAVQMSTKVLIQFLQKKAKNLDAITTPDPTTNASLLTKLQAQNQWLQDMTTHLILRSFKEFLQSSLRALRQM
Assay: SPR (Biacore), purified IgG on Protein A, 37 C
ASSAY READOUT: pKd
Note: pKd values are expressed as the negative base-10 logarithm of concentration in M.

Field pKd (entry anti-IL-6 antibody, heavy chain M34W, light chain WT (antibody, IgG1, V domains shown, Full IgG1 tested; VL as in m2) VH: EVQLVESGGGLVQPGGSLRLSCAASGFTFSPFAWSWVRQAPGKGLEWVAKISPGGSWTYYSDTVTGRFTFSLDTSKSTAYLQMNSLRAEDTAVYYCARQLWGYYALDIWGQGTLVTVSS VL: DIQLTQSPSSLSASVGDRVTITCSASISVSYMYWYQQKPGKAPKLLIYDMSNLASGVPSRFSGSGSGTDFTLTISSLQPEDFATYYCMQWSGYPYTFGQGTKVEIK ) reads 9.40

Record summary for anti-IL-6 antibody, heavy chain L100Q, light chain WT (antibody, IgG1, V domains shown, Full IgG1 tested; V domains derived as in m2) VH: EVQLVESGGGLVQPGGSLRLSCAASGFTFSPFAMSWVRQAPGKGLEWVAKISPGGSWTYYSDTVTGRFTFSLDTSKSTAYLQMNSLRAEDTAVYYCARQQWGYYALDIWGQGTLVTVSS VL: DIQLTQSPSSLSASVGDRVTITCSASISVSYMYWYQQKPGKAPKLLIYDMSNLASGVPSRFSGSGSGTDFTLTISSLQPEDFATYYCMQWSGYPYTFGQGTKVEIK : reported pKd = 9.30
